B1: library; a variant is named by its letters at N, in order (parent)
chain: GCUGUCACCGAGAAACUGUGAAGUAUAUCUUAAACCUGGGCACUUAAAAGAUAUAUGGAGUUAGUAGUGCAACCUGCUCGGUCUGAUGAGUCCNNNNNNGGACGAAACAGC

Variants of: B1
Assay: normalized RNA/DNA level without ligand (relative to sTRSVctl = 100) (log10 (% of sTRSVctl)); HEK293T; ligand: cyclic di-GMP (c-di-GMP-II aptamer); higher = less ribozyme self-cleavage, higher mRNA level
Settings: reporter: mCherry (pCS4076), ligand present: no
VALUE_KIND: normalized RNA/DNA level without ligand (log10)
Form rule: numeric answer, no unit written next to it.

{"columns": ["MUTATION_SPEC", "NUMERIC_VALUE"],
 "data": [
  ["CUCCUC", 1.76],
  ["GCACAA", 1.41],
  ["CCCACG", 1.75]
]}

In: Quick check: normalized RNA/DNA level without ligand (log10) of AUCACU ?
Out: 1.74

In: Quick check: normalized RNA/DNA level without ligand (log10) of GCUGGU ?
Out: 1.6

In: Quick check: normalized RNA/DNA level without ligand (log10) of CUUACA ?
Out: 1.55

In: Quick check: normalized RNA/DNA level without ligand (log10) of CUGUAG ?
Out: 1.66

In: Quick check: normalized RNA/DNA level without ligand (log10) of AGUAUU ?
Out: 1.68

In: Quick check: normalized RNA/DNA level without ligand (log10) of CAGGUA ?
Out: 1.57

In: Quick check: normalized RNA/DNA level without ligand (log10) of CACAUC ?
Out: 1.68

In: Quick check: normalized RNA/DNA level without ligand (log10) of ACUUCA ?
Out: 1.65
